tested on: HCT-116 colon; assay: NCI tumour cell line growth inhibition, 48 h
measure: TGI

[[record]]
molecule = "CC(C)(Cc1ccccc1)NC1=NCCO1"
reading = "> 100 µM"

[[record]]
molecule = "O=[N+]([O-])c1ccccc1S(=O)(=O)c1cc(Cl)cc2c1NCCC2"
reading = "> 100 µM"

[[record]]
molecule = "Cc1nc(N)sc1-c1ccnc(Nc2ccc(N3CCOCC3)cc2)n1"
reading = "> 100 µM"

[[record]]
molecule = "COc1cc(C2c3cc4c(cc3OC(N3CCCC3)C2C)OCO4)cc(OC)c1O (stereo not given)"
reading = "> 100 µM"

[[record]]
molecule = "Ic1ccc(Nc2nc3nonc3nc2Nc2ccc(I)cc2)cc1"
reading = "> 100 µM"

[[record]]
molecule = "C=CC1CC12C(=O)C1OC2(C)C2C(=O)c3cc4ccccc4cc3C(=O)C12 (stereo not given)"
reading = "> 100 µM"

[[record]]
molecule = "C=C1C[C@@H]2O[C@H]3[C@H]4[C@@H](C[C@@H](C)[C@@H](OC(C)=O)[C@H]42)[C@@H](C)CO[C@@]3(C)[C@H](OC(C)=O)C[C@H]1O"
reading = "> 100 µM"

[[record]]
molecule = "Cc1nc2ccccc2c(=O)n1NC(=O)c1ccc(CS)cc1"
reading = "16.9 µM"

[[record]]
molecule = "Nc1nc(Cl)c(N)c(NC23CC4CC(CC(C4)C2)C3)n1"
reading = "2.92 µM"

[[record]]
molecule = "CNn1c(-c2ccccc2)n[nH]c1=O"
reading = "> 100 µM"

